Every entry's value here was drawn from PubChem BioAssay.

assayName: viability profiling in RPMI8226 myeloma cells – cell-based, resazurin fluorescence, basal, 24 h, PK04 Diversity Set, profiling panel (AID 1180);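 also: RPMI8826 multiple myeloma cell line at 5000 cells per well; test concentration not given here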
assaySetup: higher = more signal
Satisfied means recorded z-score is 0.3 or above; Not satisfied means it is below 0.3.

As a guide, the following entries are already answered.
CN1C(=O)C2C=CC(C(O)c3cccc4ccccc34)N(NC(=O)OC(C)(C)C)C2C1=O (stereo not drawn): Not satisfied
O=C(O)[C@]1(CCS(=O)(=O)c2ccccc2)N=C(c2ccc(OCCCO)cc2)O[C@@H]1c1ccccc1: Satisfied
[N-]=[N+]=NCc1ccccc1[C@H]1OC(c2ccc(OCCCO)cc2)=N[C@@]1(Cc1ccccc1)C(N)=O: Not satisfied
C=C(COC)C(=O)CC[C@H](OC(=O)c1ccccc1-c1ccccc1C(=O)O)c1ccc(OCCO)cc1: Not satisfied
CC(=O)NCCCC[C@@H]1NC(=O)[C@H]2C[C@@H](C(=O)NCCCCCN)[C@@H](c3cccc(OCCO)c3)N2C1=O: Satisfied

[ask] Decide: z-score of "COCCCNC(=O)[C@@]1(Cc2ccccc2)COC(c2ccc(OCCCO)cc2)=N1" >= 0.3?
[reply] Satisfied

[ask] Follow-up entry: "O=C1O[C@H](c2ccccc2)[C@H](c2ccccc2)N2[C@H]1[C@@H](C(=O)N1CCCCCCC1)[C@]1(C(=O)Nc3ccccc31)[C@H]2c1ccc(O)cc1"
[reply] Not satisfied
